Test system: HCI-008 (organoid from a HER2-enriched breast cancer xenograft)
protocol: CTG-3D luminescence at 96 h relative to day-0 seeding control (ratio to day 0); higher = more growth / less cytotoxicity; PDxO 3D drug screen (set 2), 96 h, CTG-3D normalised to day-0 seeding control.
experimental-setup: 12.5 pM; days in culture: 325
result-type: CTG-3D luminescence at 96 h

>  <chemical-structure>
CC(=O)c1c(C)c2cnc(Nc3ccc(N4CCNCC4)cn3)nc2n(C2CCCC2)c1=O

>  <subject-of-test>
HCI-008

>  <result-type>
CTG-3D luminescence at 96 h

>  <recorded-measurement>
1.14

$$$$
>  <chemical-structure>
Nc1cc(C(F)(F)F)c(-c2cc(N3CCOCC3)nc(N3CCOCC3)n2)cn1

>  <subject-of-test>
HCI-008

>  <result-type>
CTG-3D luminescence at 96 h

>  <recorded-measurement>
0.757

$$$$
>  <chemical-structure>
Cc1c(CN2CCN(C(=O)[C@H](C)O)CC2)sc2c(N3CCOCC3)nc(-c3cnc(N)nc3)nc12

>  <subject-of-test>
HCI-008

>  <result-type>
CTG-3D luminescence at 96 h

>  <recorded-measurement>
1.41

$$$$
>  <chemical-structure>
CS(=O)(=O)CCNCc1ccc(-c2ccc3ncnc(Nc4ccc(OCc5cccc(F)c5)c(Cl)c4)c3c2)o1

>  <subject-of-test>
HCI-008

>  <result-type>
CTG-3D luminescence at 96 h

>  <recorded-measurement>
1.68

$$$$
